- measurement-target: NS3/NS4 complexes (Hepatitis C virus genotype 1a, UniProt P27958)
- Sequence (P27958 1027-1657): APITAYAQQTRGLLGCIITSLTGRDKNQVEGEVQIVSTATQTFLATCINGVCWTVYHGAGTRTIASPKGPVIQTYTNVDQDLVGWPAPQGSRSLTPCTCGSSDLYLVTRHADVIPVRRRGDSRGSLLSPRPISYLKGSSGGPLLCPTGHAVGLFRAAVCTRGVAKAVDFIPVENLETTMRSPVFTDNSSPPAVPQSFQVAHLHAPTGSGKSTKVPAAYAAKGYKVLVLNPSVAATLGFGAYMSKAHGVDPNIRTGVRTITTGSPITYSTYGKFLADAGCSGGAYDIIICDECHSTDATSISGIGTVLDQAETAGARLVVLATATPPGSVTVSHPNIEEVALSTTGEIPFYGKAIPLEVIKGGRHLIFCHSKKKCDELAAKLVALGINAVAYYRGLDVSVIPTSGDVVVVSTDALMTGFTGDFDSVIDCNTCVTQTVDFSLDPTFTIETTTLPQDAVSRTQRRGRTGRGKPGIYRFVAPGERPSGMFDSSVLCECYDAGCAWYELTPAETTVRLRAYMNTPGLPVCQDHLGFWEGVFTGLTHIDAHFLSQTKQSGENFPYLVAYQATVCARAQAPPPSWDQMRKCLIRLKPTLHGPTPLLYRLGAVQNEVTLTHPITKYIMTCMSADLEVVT
- Sequence (P27958 1658-1711): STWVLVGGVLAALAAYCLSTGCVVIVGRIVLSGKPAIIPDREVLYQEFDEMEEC
- experimental-details: NS3/NS4 inhibition activity (IC50)
- Type: biochemical
- test-settings: Table 2, read-out: IC50
pIC50: −log10 of the molar value.
Known pIC50 of a selection of molecules

[
  {
    "molecule": "CC(C)n1c(O[C@@H]2C[C@H]3C(=O)N[C@]4(C(=O)NS(=O)(=O)C5(C)CC5)C[C@H]4CCCCCCC[C@H](Nc4cc(F)cc(C(F)(F)F)c4)C(=O)N3C2)nc2ccccc21 [Compound 465]",
    "pIC50": "> 8.00"
  },
  {
    "molecule": "CCn1c(O[C@@H]2C[C@H]3C(=O)N[C@]4(C(=O)NS(=O)(=O)C5(C)CC5)C[C@H]4/C=C\\CCCCC[C@H](Nc4cc(F)cc(C(F)(F)F)c4)C(=O)N3C2)nc2ccccc21 [Compound 319]",
    "pIC50": "> 8.00"
  },
  {
    "molecule": "COc1ccc2c(O[C@@H]3C[C@H]4C(=O)N[C@]5(C(=O)O)C[C@H]5/C=C\\CCCCC[C@H](Nc5cc(F)cc(C(F)(F)F)c5)C(=O)N4C3)cc(-c3ccccc3)nc2c1 [Compound 354]",
    "pIC50": "> 8.00"
  },
  {
    "molecule": "O=C1N[C@]2(C(=O)NS(=O)(=O)C3CC3)C[C@H]2/C=C\\CCCCC[C@H](NCc2ccccc2)C(=O)N2C[C@H](Oc3nc4ccccc4s3)C[C@@H]12 [Compound 197]",
    "pIC50": "> 8.00"
  },
  {
    "molecule": "O=C1N[C@]2(C(=O)O)C[C@H]2/C=C\\CCCCC[C@H](Nc2cc(F)cc(C(F)(F)F)c2)C(=O)N2C[C@H](Oc3nc4ccc(Cl)cc4s3)C[C@@H]12 [Compound 322]",
    "pIC50": "7.12 to 8.00"
  }
]
